- Test System: HLA-A*6802 (human)
- Protocol Details: inhibition of 125I-labelled probe peptide binding to purified HLA; gel filtration
- Stated Conditions: remark: other sources report otherwise
# IC50 listing for each entry below
Please state the figure in nM; there is no need to write the unit.

GVSIWNPILV (modifications not checked) [peptide 63.0041 (PAP.128.V10)] :: 2290

// next item, IC50 requested
Q) Record request: IC50 value, item KLRELSELSV (modifications not checked) [peptide 63.0048 (PAP.234.V10)]
A) 1820
